FYI, the data here is from patent US10597388B2.

test system: pigweed (Amaranthus retroflexus); experiment: Test A greenhouse herbicide test, pre- and postemergence; format: in vivo; details: Postemergence, 125 g ai/ha; 0 to 100 scale where 0 is no effect and 100 is complete control
Item-by-item account of Plant response rating, Pigweed
Please state the value as a number alone, without comment.

CCc1ccc2ccccc2c1-c1c(OC(=O)OC(C)C)c(C)nn(C)c1=O    50
COc1nn(C)c(=O)c(-c2cccc3ccccc23)c1O    70
Cc1nn(C)c(=O)c(-c2c(C)sc3ccc(Cl)cc23)c1O    90

Which Plant response rating, Pigweed value belongs to COc1nn(C)c(=O)c(-c2c(C)ccc3ccccc23)c1OC(C)=O ?
90

Here is the next compound: CCC(=O)Oc1c(C)nn(C)c(=O)c1-c1ccc(Br)c2ccccc12
90

Here is the next compound: Cc1ccc2ccccc2c1-c1c(O)c(Cl)nn(C)c1=O
100
